Overview of reported pKd across a group of compounds:
target: PI3Kα H1047R protein (p110-α H1047R complexed with truncated p85-α) (Homo sapiens, UniProt P42336, H1047R); construct: The protein contained a full-length p110-α subunit harboring the H1047R mutation; test: Surface Plasmon Resonance (SPR) binding, wortmannin-blocked protein; details: Biacore 8K, ATP site blocked with 1 μM wortmannin, 25° C.
Sequence (P42336 whole entry H1047R, the tested form may be a part): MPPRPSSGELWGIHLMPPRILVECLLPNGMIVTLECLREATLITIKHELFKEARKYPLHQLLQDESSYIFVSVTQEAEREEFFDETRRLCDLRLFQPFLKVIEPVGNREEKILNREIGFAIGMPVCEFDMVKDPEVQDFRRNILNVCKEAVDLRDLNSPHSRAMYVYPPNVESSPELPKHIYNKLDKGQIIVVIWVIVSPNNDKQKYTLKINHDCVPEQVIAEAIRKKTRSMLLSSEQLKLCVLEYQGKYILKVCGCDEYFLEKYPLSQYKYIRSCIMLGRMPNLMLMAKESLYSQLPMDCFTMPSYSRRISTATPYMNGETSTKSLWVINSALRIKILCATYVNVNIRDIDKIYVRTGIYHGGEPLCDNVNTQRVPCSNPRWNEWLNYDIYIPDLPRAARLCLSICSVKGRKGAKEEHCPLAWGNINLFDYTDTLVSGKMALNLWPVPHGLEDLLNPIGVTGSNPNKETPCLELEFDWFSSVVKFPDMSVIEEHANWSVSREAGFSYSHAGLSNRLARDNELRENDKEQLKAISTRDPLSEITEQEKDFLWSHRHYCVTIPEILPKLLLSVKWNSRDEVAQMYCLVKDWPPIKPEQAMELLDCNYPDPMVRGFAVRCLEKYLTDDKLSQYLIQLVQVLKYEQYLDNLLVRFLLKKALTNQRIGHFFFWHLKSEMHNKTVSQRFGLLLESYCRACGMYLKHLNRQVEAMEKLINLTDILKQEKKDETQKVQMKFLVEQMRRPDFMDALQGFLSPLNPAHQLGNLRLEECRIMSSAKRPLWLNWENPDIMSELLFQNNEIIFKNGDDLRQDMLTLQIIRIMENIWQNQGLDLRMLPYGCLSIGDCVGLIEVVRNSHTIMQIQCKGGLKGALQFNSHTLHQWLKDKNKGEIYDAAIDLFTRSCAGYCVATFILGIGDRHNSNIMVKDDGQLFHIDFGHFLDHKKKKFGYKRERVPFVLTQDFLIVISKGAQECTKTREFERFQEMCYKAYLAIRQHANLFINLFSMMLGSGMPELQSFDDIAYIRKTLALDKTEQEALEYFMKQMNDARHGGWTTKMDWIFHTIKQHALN
Sequence (P27986 322-694 partner limits assumed): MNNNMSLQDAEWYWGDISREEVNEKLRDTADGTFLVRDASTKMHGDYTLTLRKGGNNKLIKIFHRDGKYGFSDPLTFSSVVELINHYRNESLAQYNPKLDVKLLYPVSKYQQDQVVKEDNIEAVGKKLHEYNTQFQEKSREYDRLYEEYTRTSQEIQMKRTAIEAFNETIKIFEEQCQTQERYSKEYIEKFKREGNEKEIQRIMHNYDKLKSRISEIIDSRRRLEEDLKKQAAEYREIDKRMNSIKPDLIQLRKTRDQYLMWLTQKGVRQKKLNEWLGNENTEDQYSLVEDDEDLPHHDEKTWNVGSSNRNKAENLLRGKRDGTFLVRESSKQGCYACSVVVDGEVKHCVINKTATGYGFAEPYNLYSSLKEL
pKd: −log10 of the molar value.

Illustrative cases are given below, each with its answer.
{"compound": "Cc1c([C@@H](NC(=O)Nc2cncc(C(=O)N(C)C)c2)C(C)C)oc2ccc(F)cc12", "pKd": "> 7.00"}
{"compound": "Cc1c(C(NC(=O)Nc2ccc(S(C)(=O)=O)cc2)C(C)C)oc2ccc(F)cc12 (single isomer, unassigned)", "pKd": "6.60 to 7.00"}
{"compound": "Cc1c([C@@H](NC(=O)Nc2cncc(C(N)=O)c2)C(C)C)oc2ccc(F)cc12", "pKd": "> 7.00"}
{"compound": "Cc1c([C@@H](C)NC(=O)Nc2ccc(C(N)=O)cc2)oc2ccc(F)cc12", "pKd": "≤ 6.30"}
{"compound": "Cc1c([C@@H](NC(=O)N[C@H]2CCCS(=O)(=O)C2)C(C)C)oc2ccc(F)cc12", "pKd": "6.30 to 6.60"}
{"compound": "Cc1c([C@@H](NC(=O)Nc2cncc(C#N)c2)C(C)C)oc2ccc(F)cc12", "pKd": "6.30 to 6.60"}

Lookup result for `Cc1c([C@@H](NC(=O)Nc2cnc(N3CCC3)nc2)C(C)C)oc2ccc(F)cc12` ; measured pKd: > 7.00

Lookup result for `COC(=O)N1CCC[C@H](NC(=O)N[C@H](c2oc3ccc(F)cc3c2C)C(C)C)C1` ; measured pKd: ≤ 6.30

Lookup result for Cc1c(C(NC(=O)Nc2cnc(N3CCC3)nc2)C(F)(F)F)oc2ccc(F)cc12 (single isomer, unassigned) ; measured pKd: > 7.00

Lookup result for `Cc1c([C@@H](NC(=O)Nc2cnc(N3CC(F)(F)C3)nc2)C(C)C)oc2ccc(F)cc12` ; measured pKd: > 7.00

====

tested on: T47D pAKT (S473), PI3Kα H1047R mutation present; experiment: HTRF pAKT-T47D; conditions: read-out: T47D pAKT IC50; T47D.1 cells, pAKT (S473) HTRF, 1 hour;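 further: assay medium was RPMI with 10% FBS and 0.2 units/ml bovine insulin, without phenol red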
pIC50: −log10 of the molar value.
measurement_name: pIC50

Illustrative cases are given below, each with its answer.
{"compound": "CCc1c(C(NC(=O)Nc2cnc(N)nc2)C(F)(F)F)oc2ccc(F)cc12 (racemic) [Compound 132]", "measurement_name": "pIC50", "result": "> 6.00"}
{"compound": "Cc1c(C(NC(=O)Nc2cnc(N[C@H](C)CO)nc2)C(F)(F)F)oc2c(F)cc(F)cc12 (single isomer, unassigned) [Compound 187]", "measurement_name": "pIC50", "result": "< 5.30"}
{"compound": "C[C@@H]1[C@@H](O)CN1c1ncc(NC(=O)NC(c2cc3cc(F)cc(F)c3o2)C(F)(F)F)cn1 (stereo partly drawn) [Compound 174]", "measurement_name": "pIC50", "result": "> 6.00"}
{"compound": "Cc1c(C(NC(=O)Nc2cnc(N)nc2)C(F)(F)F)oc2c(F)cc(Cl)cc12 (racemic) [Compound 155]", "measurement_name": "pIC50", "result": "< 5.30"}
{"compound": "Cc1c(C(NC(=O)Nc2cnc(N3C[C@@H](O)[C@@H]3C)nc2)C(F)(F)F)oc2c(F)cc(F)cc12 (stereo partly drawn) [Compound 176]", "measurement_name": "pIC50", "result": "< 5.30"}
{"compound": "Cc1c(C(NC(=O)Nc2cnc(N)nc2)C(F)(F)F)oc2c(C)cc(F)cc12 (single isomer, unassigned) [Compound 214]", "measurement_name": "pIC50", "result": "> 6.00"}

Lookup result for Cc1c(C(NC(=O)Nc2cnc(N)nc2)C(F)(F)F)oc2c(Cl)cc(F)cc12 (racemic) [Compound 178] ; measured pIC50: > 6.00

Lookup result for Cc1c(C(NC(=O)Nc2cnc(N3CC4(COC4)C3)nc2)C(F)(F)F)oc2c(F)cc(F)cc12 (racemic) [Compound 172] ; measured pIC50: > 6.00

Lookup result for Cc1c(C(NC(=O)Nc2cnc(N3CC(O)C3)nc2)C(F)(F)F)oc2c(F)cc(Cl)cc12 (racemic) [Compound 158] ; measured pIC50: < 5.30

Lookup result for Cc1c(C(NC(=O)Nc2cnc(N)nc2)C(F)(F)F)oc2c(F)cc(Cl)cc12 (racemic) [Compound 156] ; measured pIC50: > 6.00

Lookup result for Cc1c(C(NC(=O)Nc2cnc(N3CC(F)C3)nc2)C(F)(F)F)oc2c(F)cc(F)cc12 (single isomer, unassigned) ; measured pIC50: > 6.00

Lookup result for Cc1c(C(NC(=O)Nc2cnc(N3CC(O)C3)nc2)C(F)(F)F)oc2ccc(Cl)cc12 (racemic) [Compound 154] ; measured pIC50: > 6.00

Data origin, for the record: patent US12084434B2
